All figures here come from patent US10238631B2.

Tested on: HTB-68 (NRAS mutation)
Protocol Summary: MTT cell viability assay, HTB-68 melanoma
Type: cell-based, human
Run Parameters: Homo sapiens, 24 h
Procedure: Normal or cancer cells (2×10^3 to 1×10^4 cells/well) were seeded in 96-well plate for overnight and treated with different compounds for 24 h to 72 h. Cells growth were determined by MTT-based colorimetric assays according to. Viability of the test cells treated with vehicle (0.5% DMSO) only was defined as 100% viable. Survival of cells after treatment with DETDs was calculated using the following formula: viable cell number (%)=OD570 (treated cell culture)/OD570 (vehicle control)×100. […]
pIC50: −log10 of the molar value.
For each record, write down the corresponding pIC50.

Task: Item C=C1C(=O)OC2CC3=C[C@@H](C/C(C)=C/C(OC(=O)C(Cl)Cl)[C@H]12)OC3=O (stereo partly drawn) has what recorded pIC50?
Result: < 5.00

Task: Report pIC50 for C=C(C)C(=O)OC1/C=C(\C)C[C@@H]2C=C(CC3OC(=O)C(=C)[C@@H]13)C(=O)O2 (stereo partly drawn) please.
Result: < 5.00

Task: Recorded pIC50 of C=C1C(=O)OC2CC3=C[C@@H](C/C(C)=C/C(OC(=O)/C=C/c4cccs4)[C@H]12)OC3=O (stereo partly drawn) , please.
Result: < 5.00

Task: For C=C1C(=O)OC2CC3=C[C@@H](C/C(C)=C/C(OC(=O)C4CCCCC4)[C@H]12)OC3=O (stereo partly drawn) , what is its reported pIC50?
Result: 5.02

Task: So what's the measured pIC50 for this one? C=C1C(=O)OC2CC3=C[C@@H](C/C(C)=C/C(OC(=O)c4cc5ccccc5o4)[C@H]12)OC3=O (stereo partly drawn)
Result: < 5.00

Task: Look at this compound and give its reported pIC50. C=C1C(=O)OC2CC3=C[C@@H](C/C(C)=C/C(OC(=O)/C=C/c4cccc(C(F)(F)F)c4)[C@H]12)OC3=O (stereo partly drawn)
Result: < 5.00

Task: For the compound shown here, C=C1C(=O)OC2CC3=C[C@@H](C/C(C)=C/C(OC(=O)c4ccccc4)[C@H]12)OC3=O (stereo partly drawn) , give the reported pIC50.
Result: < 5.00

Task: Which value of pIC50 has been reported for C=C1C(=O)OC2CC3=C[C@@H](C/C(C)=C/C(OC(=O)CC(C)CC)[C@H]12)OC3=O (stereo partly drawn) in the records?
Result: < 5.00

Task: Given C=C1C(=O)OC2CC3=C[C@@H](C/C(C)=C/C(OC(=O)C=C(C)C)[C@H]12)OC3=O (stereo partly drawn) , state its recorded pIC50.
Result: < 5.00

Task: For C=C1C(=O)OC2CC3=C[C@@H](C/C(C)=C/[C@@H](OC(=O)C(C)(OC)c4ccc5ccccc5c4)[C@H]12)OC3=O (stereo partly drawn) , what is its reported pIC50?
Result: 5.28

Task: Any idea what its pIC50 is? The compound is C=C1C(=O)OC2CC3=C[C@@H](C/C(C)=C/C(OC(=O)CC(C)(CC)OC(C)=O)[C@H]12)OC3=O (stereo partly drawn)
Result: < 5.00

Task: Consider the compound C=C1C(=O)OC2CC3=C[C@@H](C/C(C)=C/C(OC(=O)Cc4cccc5cccnc45)[C@H]12)OC3=O (stereo partly drawn) and give its measured pIC50.
Result: < 5.00

Task: For C=C1C(=O)OC2CC3=C[C@@H](C/C(C)=C/C(OC(=O)c4cccs4)[C@H]12)OC3=O (stereo partly drawn) , what is its reported pIC50?
Result: 5.12

Task: Using the record for C=C1C(=O)OC2CC3=C[C@@H](C/C(C)=C/C(OC(=O)C(CC)CC)[C@H]12)OC3=O (stereo partly drawn) , report its pIC50.
Result: < 5.00

Task: Fill in: pIC50 of C=C1C(=O)OC2CC3=C[C@@H](C/C(C)=C/C(OC(=O)Cc4cccc5cc(OC)ccc45)[C@H]12)OC3=O (stereo partly drawn) is ___
Result: 5.46

Task: What value of pIC50 has been recorded for this entry: C=C1C(=O)OC2CC3=C[C@@H](C/C(C)=C/C(OC(=O)/C=C/C)[C@H]12)OC3=O (stereo partly drawn)
Result: < 5.00

Task: Any idea what pIC50 was measured for C=C1C(=O)OC2CC3=C[C@@H](C/C(C)=C/C(OC(=O)/C=C/c4cccc(OC(F)(F)F)c4)[C@H]12)OC3=O (stereo partly drawn) ?
Result: < 5.00

Task: Requested read-out: pIC50. Entry: C=C1C(=O)OC2CC3=C[C@@H](C/C(C)=C/C(OC(=O)/C(C)=C/CC)[C@H]12)OC3=O (stereo partly drawn)
Result: 5.11
